target: T1, Soluble heterodimeric CD3 protein (hCD3-epsilon/hCD3-delta) with either a human Fc tag (hFcΔAdp/hFc) or a … (human, UniProt P07766 23-126; P04234 22-105); test: SPR Biacore 25C antigen-capture
T1 construct: also called hCD3ε/δ; not shown: Fc tag: human (hFcΔAdp/hFc)
T1 sequence (P07766 23-126 limits assumed, stated change not applied, chain 1 of 2): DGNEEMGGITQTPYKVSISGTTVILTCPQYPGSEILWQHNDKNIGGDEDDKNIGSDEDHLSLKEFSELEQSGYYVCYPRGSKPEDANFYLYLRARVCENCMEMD
T1 sequence (P04234 22-105 limits assumed, stated change not applied, chain 2 of 2): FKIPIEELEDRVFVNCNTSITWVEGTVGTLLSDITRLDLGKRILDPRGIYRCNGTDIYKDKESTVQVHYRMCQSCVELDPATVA
Threshold check on T½: strictly below 1 h is condition met; on or above 1 h is condition not met.

- BINDER: "H2M3543N (antibody, mouse IgG2, V domains shown, H2M: mouse IgG2 Fc, human variable regions; divalent) VH: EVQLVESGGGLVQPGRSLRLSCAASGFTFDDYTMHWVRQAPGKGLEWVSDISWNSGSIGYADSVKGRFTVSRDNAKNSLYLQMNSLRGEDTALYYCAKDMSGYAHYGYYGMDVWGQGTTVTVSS VL: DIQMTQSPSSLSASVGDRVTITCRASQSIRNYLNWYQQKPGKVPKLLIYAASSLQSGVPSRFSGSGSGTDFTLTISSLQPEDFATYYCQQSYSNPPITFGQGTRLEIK"
  CLASSIFICATION: "condition not met"
- BINDER: "H2M2777N (antibody, mouse IgG2, V domains shown, H2M: mouse IgG2 Fc, human variable regions; divalent) VH: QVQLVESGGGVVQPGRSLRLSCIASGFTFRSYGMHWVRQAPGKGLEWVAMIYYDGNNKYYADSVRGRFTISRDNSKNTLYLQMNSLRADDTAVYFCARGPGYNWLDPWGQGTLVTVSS VL: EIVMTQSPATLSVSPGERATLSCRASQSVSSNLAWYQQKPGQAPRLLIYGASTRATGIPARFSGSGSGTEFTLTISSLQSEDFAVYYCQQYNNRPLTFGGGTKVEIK"
  CLASSIFICATION: "condition met"
- BINDER: "H2M2778N (antibody, mouse IgG2, V domains shown, H2M: mouse IgG2 Fc, human variable regions; divalent) VH: EVQLVESGGGLVQPGRSLRLSCAASGFTFDDYSMHWVRQAPGKGLEWVSGISWNSRSIDYADSVKGRFTISRDNAKNSLYLQMNSLRAEDTALYYCVKDNSGYGRYYYYGMDVWGQGTTVSVSS VL: KIVMTQSPATLSVSPGERATLSCRASQSVSGNLAWYQQKPGQAPRLLIYGASTRATSIPARFSGSGSGTEFTLTISSLQSEDFAVYFCQHYYNWPLTFGGGTKVEIR"
  CLASSIFICATION: "condition not met"
- BINDER: "H1H2712N (antibody, human IgG1, V domains shown, H1H: human IgG1 Fc; divalent) VH: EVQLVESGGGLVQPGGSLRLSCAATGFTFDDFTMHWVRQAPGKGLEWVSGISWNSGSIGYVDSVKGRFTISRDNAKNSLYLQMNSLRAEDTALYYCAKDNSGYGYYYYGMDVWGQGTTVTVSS VL: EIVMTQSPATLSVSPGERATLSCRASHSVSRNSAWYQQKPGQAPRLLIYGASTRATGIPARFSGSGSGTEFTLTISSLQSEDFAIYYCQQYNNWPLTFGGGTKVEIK"
  CLASSIFICATION: "condition not met"
- BINDER: "H1H5793B (antibody, human IgG1, V domains shown, H1H: human IgG1 Fc; divalent) VH: QVQLVQSGTEVKKPGASMKVSCKASGYTFTGYYIHWVRQAPGQGLEWMGWINPNSDVTKYAQKFQGRVTLTRDTSISAAYIDLSRLRSDDTAIYYCARMGDGAVFDYWGQGTLVTVSS VL: DIQLTQSPSSLSASVGDRVTITCRASQRISSYLNWYQQKPGKAPKVLISVASSLQSGVPSRFSGSGFGTDFTLTISSLQPEDSASYYCQQSYNTPLTFGGGTKLEIKR"
  CLASSIFICATION: "condition not met"

Attribution: patent US20190127480A1
